experimental_system: T1, murine GPC3 (6938-GP; R&D systems), biotinylated (murine, UniProt Q8CFZ4 25-558, limits assumed, biotinylated using standard NHS chemistry)
T1 construct: Bought protein; also called mouse GPC3
T1 sequence (Q8CFZ4 25-558 limits assumed): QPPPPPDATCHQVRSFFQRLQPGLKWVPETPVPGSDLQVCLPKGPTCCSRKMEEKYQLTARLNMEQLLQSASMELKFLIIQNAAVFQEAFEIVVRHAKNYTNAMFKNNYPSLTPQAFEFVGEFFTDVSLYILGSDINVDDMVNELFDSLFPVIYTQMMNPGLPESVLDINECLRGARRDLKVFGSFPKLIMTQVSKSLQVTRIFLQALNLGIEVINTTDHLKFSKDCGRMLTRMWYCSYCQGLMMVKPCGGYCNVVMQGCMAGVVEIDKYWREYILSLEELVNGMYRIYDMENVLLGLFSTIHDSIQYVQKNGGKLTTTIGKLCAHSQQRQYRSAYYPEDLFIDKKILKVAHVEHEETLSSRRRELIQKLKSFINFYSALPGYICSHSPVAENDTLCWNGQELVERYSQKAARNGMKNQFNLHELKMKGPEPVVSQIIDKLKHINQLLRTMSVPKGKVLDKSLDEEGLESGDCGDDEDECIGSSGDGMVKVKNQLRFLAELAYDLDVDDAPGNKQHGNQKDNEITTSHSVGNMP
test_description: SPR (Biacore T200), biotinylated GPC3 captured on chip, mutein in flow
pKd: −log10 of the molar value.

[
  {
    "binder": "lipocalin mutein of SEQ ID NO: 14 (designed binder, hNGAL (Lcn2) mutein; also called optimized GPC3 specific lipocalin mutein) QDSTSDLIPAPPLSKVPLQQNFQDNQFQGKWYVVGRAGNVGLREDKDPPKMWATIYELKEDKSYDVTNVRFAGKKVKYTIGTFVPGSQPGEFTLGQIKSEPGNTATLVRVVSTNYNQHAMVFFKEVYQNREIFFITLYGRTKELTSELKENFIRFSKSLGLPENHIVFPVPIDQAIDGSAWSHPQFEK",
    "pKd": 8.80
  },
  {
    "binder": "lipocalin mutein of SEQ ID NO: 12 (designed binder, hNGAL (Lcn2) mutein; also called optimized GPC3 specific lipocalin mutein) QDSTSDLIPAPPLSKVPLQQNFQDNQFQGKWYVVGRAGNVALREDKDPPKMRATIYELKEDKSYDVTNVVFAGKKCKYSIGTFVPGSQPGEFTLGRIKSPPGNTANLVRVVSTNYNQHAMVFFKEVYQNREIFFIILYGRTKELTSELKENFIRFSKSLGLPENHIVFPVPIDQCIDGSAWSHPQFEK",
    "pKd": 10.24
  },
  {
    "binder": "lipocalin mutein of SEQ ID NO: 15 (designed binder, hNGAL (Lcn2) mutein; also called optimized GPC3 specific lipocalin mutein) QDSTSDLIPAPPLSKVPLQQNFQDNQFQGKWYVVGRAGNVGLREDKDPPKMRATIYELKEDKSYDVTGVRFGEKKIKYSIGTFVPGSQPGEFTLGQIKSQPGDTANLVRVVSTNYNQHAMVFFKEVYQNREIFFIILYGRTKELTSELKENFIRFSKSLGLPENHIVFPVPIDQAIDGSAWSHPQFEK",
    "pKd": 10.14
  }
]
